This collection of values is drawn from patent US20260049134A1.

Target: T1, CADM1-His (Acro Biosystems) (human, UniProt Q9BY67 45-374)
T1 construct: Bought; also called CADM1/IGSF4A; not shown: His tag of the bought protein
T1 sequence: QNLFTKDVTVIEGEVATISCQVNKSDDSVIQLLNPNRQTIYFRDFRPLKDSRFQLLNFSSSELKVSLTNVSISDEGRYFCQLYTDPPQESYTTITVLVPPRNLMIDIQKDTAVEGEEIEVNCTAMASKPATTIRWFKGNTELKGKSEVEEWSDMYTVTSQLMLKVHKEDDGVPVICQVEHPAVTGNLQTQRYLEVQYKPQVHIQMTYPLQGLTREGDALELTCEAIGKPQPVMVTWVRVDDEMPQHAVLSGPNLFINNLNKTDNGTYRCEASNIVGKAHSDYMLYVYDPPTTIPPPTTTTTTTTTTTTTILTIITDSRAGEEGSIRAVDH
Test: ELISA on coated CADM1-His, 150 ng IgG1; None 0.059
Catalogue of ELISA Absorbance (405 nm-570 nm) readings, one per entry.

{"BINDER": "TH9-0022 (antibody, human IgG1, kappa, L234A L235A, V domains shown, also called TH9-022; negative control) VH: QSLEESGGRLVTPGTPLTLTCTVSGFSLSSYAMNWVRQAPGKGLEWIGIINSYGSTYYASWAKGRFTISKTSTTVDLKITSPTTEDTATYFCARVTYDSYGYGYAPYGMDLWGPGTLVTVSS VL: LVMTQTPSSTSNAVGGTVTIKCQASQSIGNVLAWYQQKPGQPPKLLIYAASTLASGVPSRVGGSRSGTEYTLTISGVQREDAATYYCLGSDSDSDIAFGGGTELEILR", "ELISA Absorbance (405 nm-570 nm)": 0.055}
{"BINDER": "HW-17 chimeric rabbit-human IgG1 LA/LA/PG (antibody, V domains shown, Fc-silenced (L234A/L235A/P329G) IgG1, lambda; Alexa Fluor 647-labeled in single-step flow cytometry; Cluster C-1) VH: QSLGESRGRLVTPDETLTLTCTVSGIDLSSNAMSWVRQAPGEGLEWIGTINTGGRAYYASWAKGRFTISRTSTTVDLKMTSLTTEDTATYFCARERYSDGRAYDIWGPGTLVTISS VL: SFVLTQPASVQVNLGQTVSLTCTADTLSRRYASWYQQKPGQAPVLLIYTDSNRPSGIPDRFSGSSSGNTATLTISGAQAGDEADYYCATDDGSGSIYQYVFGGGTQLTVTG", "ELISA Absorbance (405 nm-570 nm)": 0.048}
{"BINDER": "HW-81 chimeric rabbit-human IgG1 LA/LA/PG (antibody, V domains shown, Fc-silenced (L234A/L235A/P329G) IgG1, lambda; Alexa Fluor 647-labeled in single-step flow cytometry; Cluster C-45) VH: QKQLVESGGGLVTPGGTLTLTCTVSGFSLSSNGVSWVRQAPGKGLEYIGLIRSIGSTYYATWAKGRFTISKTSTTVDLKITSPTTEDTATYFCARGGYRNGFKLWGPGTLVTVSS VL: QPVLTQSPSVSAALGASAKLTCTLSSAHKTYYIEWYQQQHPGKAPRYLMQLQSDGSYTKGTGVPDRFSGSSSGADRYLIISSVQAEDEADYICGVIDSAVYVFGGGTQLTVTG", "ELISA Absorbance (405 nm-570 nm)": 0.05}
